- Tested on: MS2 coat protein
- assayProtocol: apparent KD of MS2 coat protein, switch ON state; designed switch direction (-1 OFF switch, 1 ON switch): 1; higher = weaker reporter binding
- cond: FMN input: 0 or 200 uM; Eterna round: R93 (includes R88 designs)
Lab note: anything with apparent KD of MS2 coat protein at or over 0.02 µM counts as Criterion met; the rest go in Criterion not met.

Field: example entries. Status: answers known.
sequenceEntry | label
AAUAUACAUGAGGAUCACCCAUGUUUUAAUAACUCAGGAUAUACGGGUGAAAACAGCAUAGUAGAAGGGAGAAAAA [SameState1 Malc#2] | Criterion met
GAUAAACAUGAGGAUCACCCAUGUAGAUAUAUGGGAGGAUAUACAAAGACGAUAGUCAAAGUAGAAGGCCUAAUAG [77%, Mat - Mod of Eli - With 4 more U's] | Criterion met
GAGGACCUAGGAUAGGAUAUGUGAAUAAUUACAUGAGGAUCACCCAUGUCCAUUUAUAUGGGAACAUAGAAGGGUUCUGGUUAUC [SameState2 Malc#38] | Criterion met
AAAAAACAUGAGGAUCACCCAUGUCGAAAGACAUGAGGAUAUGUACAGACUUCGGUCUGUACAGAAGGCAUGAAAA [SS1 - 1012] | Criterion met
AAACCACAUGAGGAUCACCCAUGUCCAAAAAAACAAGGAUAUAUAAAAAAAAAAAAAAAAAUAGAAGGUGUAAAAA [<insert title here>] | Criterion met
GGGAGGAAGAGAGAGGAUAUCCAAAGGAAAACAUGAGGAUCACCCAUGUAAAAGGUAGGAAAUUGGGAGAAGGCUCAAGAGAACG [salish99-ss2-056] | Criterion met

Could you verify whether the entry AAAUAAAUGACUCAGGAUAUAUCAUAGGGUACAUGAGGAUCACCCAUGUUUUAAUAACAUGUUUGGUAGAAGGGAGUCAAUAAAU [LROPPY Same State 2 - v07_deltaG=1.69] shows apparent KD of MS2 coat protein of no less than 0.02 µM?
Criterion met

* * *

Overview of recorded apparent KD of MS2 coat protein for various sequences
- Test system: MS2 coat protein
- assayProtocol: apparent KD of MS2 coat protein; higher = weaker reporter binding
- cond: Eterna round: R107; input ligand: arginine 13.2 mM
Provide only the numeric value, understood in nM.

Solved entries:
sequenceEntry | apparent KD of MS2 coat protein / nM
AACAUGAGGAUCACCCAUGUCUGAACUGAAGGAGCGCUAAAUAAGGCAGGUAGGUCGCGGAAUUUUGUAUAUAUAUAUAUAUGGG [9.F] | 6.01
CCUCACAUGAGGAUCACCCAUGUCUUUACACGAGGACCGGUACGGCCGCCACUCGUUCACAAAACAACCAGAAGUGAUGCCUACA [theeternabot_sameState_MS2_Trp_A_14] | 80.2
GGGACACCGAGAAGGAGCGCAUCCAAACCACACAUGAGGAUCACCCAUGUAUAAAUAUGCAUGCAGGUAGGUCGCUCGGCGUCUC [Orordionbi] | 76.5
ACAUGAGGAUCACCCAUGUUCCUCUUUGAUACCAGUGAGUUGUUUCGCCCUUGGCAGCGAGUUUUUUUUUUUUUGUUUUGUUUGG [6.R] | 173
GCGUUCUCUGCGGCCGCCACUCAAGGAGCUACAUAGCUCCUAGACAUGAGGAUCACCCAUGUCGCGAGGACCGGGUAGAUCCUUA [Same State Typptophan B GF8] | 116
AGUCUUAGUGGAAGGAGCGCAGUCAUAACAUGAGGAUCACCCAUGUCGAGGUGAGGGUCAUUGCAGGUAGGUCGCCAUAAUAGGA [#16 Same State - Arginine B] | 19.3

Sample UAAACUACACAUGAGGAUCACCCAUGUGGCCGAGGACCGGUACGGCCGCCACUCGUGUGUUAAUAAAAGAACCGCAAAGUUCUGU [Ticerear] — what was its apparent KD of MS2 coat protein?
49.8

Return reported apparent KD of MS2 coat protein; argument: AGCACUGUGACGGCCGCCACUACAUAAUAGGGUGGUCAGGUUCAUAUACAUGAGGAUCACCCAUGUAGGACCGGGUCUCAGUGCA [Omei Trp Exc B A v6]
8.68

Can you look up the measured apparent KD of MS2 coat protein of GAGCUGAUGUAGAGCCUUUAGUUCUGAGAUACCAGUACAGAAAUGUACCCUUGGCAGCUCAGCUUUACAUGAGGAUCACCCAUGU [Ex Theophylline A 17] for me?
20

What measured apparent KD of MS2 coat protein goes with AGAGCAUUGACGGCCGCCACUCAUGUCACAUGAGGAUCACCCAUGUGAUGGGUGAUAGCCCGGUUGAGGACCGGGUCAAUGCUCA [Omei Tryp SS B v1] ?
18.4

* * *

- Tested on: MS2 coat protein
- assayProtocol: apparent KD of MS2 coat protein; designed switch direction (-1 OFF switch, 1 ON switch): 1; higher = weaker reporter binding
- cond: Eterna round: R95; input ligand: FMN 200 uM
Mark Yes for reported apparent KD of MS2 coat protein of 30 nM or greater; mark No for anything smaller.

sequenceEntry | label
AUAAAACAUGAGGAUCACCCAUGUCAACUAAGUCGAGGAUAUGGGCAAAUAAAAUAAGAACCAGAAGGCGAAUAAU [salish99_ss1_r3_041] (puzzle: Same State 1) | Yes
AUUUAACAAGCUUUUUGCUCGUCUUAUAAACAUGAGGAUCACCCAUGUAAUAGCGUGAGAGUAAUUUUUUAAAUAAU [JMF 96] (puzzle: Sensor for hsa-mir-208a) | No
AUAAAACAUGAGGAUCACCCAUGUCAACAAAGUCGAGGAUAUGGGCAAAUAAAAUAAGAUCCAGAAGGCGAAUAAU [salish99_ss1_r3_016] (puzzle: Same State 1) | Yes
GACAAUCUAUCUGAGGAUAUCAUGAAUAAAACAUGAGGAUCACCCAUGUGCAGGAUAACUGCAAAUGAGAAGGCAGAUAGAUUGU [Mat - Same State 2 - Mod - D7] (puzzle: Same State 2) | No
AAAAUACAUGAGGAUCACCCAUGUCUAAAGAACGGAGGAUAUAGGCGUACAAAACACGCACUAGAAGGCUGGGUGC [Tesoonge] (puzzle: Same State 1) | Yes

Confirm if apparent KD of MS2 coat protein reported for the sequence GAAAAGGCAACGCAGGAUAUGAAAGGUGAAACAUGAGGAUCACCCAUGUGCUACCUUCCGAUAAAUCAGAAGGGCGACGCCUAAA [Usbemaus] (puzzle: Same State 2) is 30 nM or above.
No

Is the recorded value of apparent KD of MS2 coat protein equal to or greater than 30 nM for this sequence? UUAUCACAUGAGGAUCACCCAUGUUAUACUUUUUUAGGAUAUUUUAUGUAUGACCAAAUAAAAGAAGGAGGAAUAA [flagellum_key_01] (puzzle: Same State 1)
Yes

Quick check, apparent KD of MS2 coat protein >= 30 nM? UGUCCAGCCUGAGCUGGACAAAAGCAUGUACAUGAGGAUCACCCAUGUUCAUGUACAAGCUUUUUGCUCGUCUUACC [salish99_208a_r3_083] (puzzle: Sensor for hsa-mir-208a)
Yes

* * *

- Test system: MS2 coat protein
- assayProtocol: apparent KD of MS2 coat protein; designed switch direction (-1 OFF switch, 1 ON switch): 1; higher = weaker reporter binding
- cond: input ligand: microRNA oligo, concentration not stated
measurementType: apparent KD of MS2 coat protein (nM)
Enter your answer as a number in nM; do not include the unit.

sequenceEntry | apparent KD of MS2 coat protein, nM
UUCACCUUUUUUUACAUGAGGAUCACCCAUGUUUUUUUUACGUAGGAUAUCGAUGCUUGUUUUUUCGAGAAGGACGAUGUAAGU [JR_SSND3_Sub052] (Eterna round: R96, puzzle: Same State NG 3) | 12.2
GUUCGGAAUCGAGCUGACAUGAGGAUCACCCAUGUUAGUGGGAAGGAUAUGGUACAGAAACUGUACCAGAAGGUCUUACUGUCU (Eterna round: R96, puzzle: Same State NG 3) | 66.7
UAUUAGAUCCGAGGAUAUCCUUAUUAGAAACAUGAGGAUCACCCAUGUAAAGGGAAUUAUUUGUAGGAGAAGGCGGAUUUAGUU [JR_SSNG2_Sub056] (Eterna round: R96, puzzle: Same State NG 2) | 41.7

Attention now shifts to the item below.
What does the record list as apparent KD of MS2 coat protein for GGUAUCGGCACAGGAUAUGCUAUCCUUUGGGUAGCAGAAGGGUGGACAUGAGGAUCACCCAUGUGGGUGCCAGGGCGUGAGCCC [JL SSNG1 1.85] (Eterna round: R96, puzzle: Same State NG 1) ?
363

* * *

- Tested on: MS2 coat protein
- assayProtocol: apparent KD of MS2 coat protein; designed switch direction (-1 OFF switch, 1 ON switch): -1; higher = weaker reporter binding
- cond: input ligand: none
measurementType: apparent KD of MS2 coat protein (nM)
Give just the numeric value; nM need not be written.

sequenceEntry | resultUnit | apparent KD of MS2 coat protein
AGCAUCUGAGGAUAUACUGGGUAUGGAAGGCGAAGGGCCAGACAUGAGGAUCACCCAUGUAGAAGGCAGUUUGC [Esenonan] (Eterna round: R96, puzzle: Exclusion 2) | nM | 65.4

Consider the sequence GUUAACGCAGGAUAUUAGUACAUGUACAUGAGGAUCACCCAUGUUUAGUGGGUCUAGGAAUAAGAAGGGCGAUGAA [JR_Ex5_Sub007] (Eterna round: R97, puzzle: Exclusion 5) and give its measured apparent KD of MS2 coat protein.
535

Sample UAUAUGUCAGGAUAUUAGUAGUAAAUGAAUAAAAUUAUUACUGAGAAGGGACAUGAGGAUCACCCAUGUGUCUC [Mat - Exclusion 4 - Eli Mod - D26] (Eterna round: R97, puzzle: Exclusion 4) — what was its apparent KD of MS2 coat protein?
175

For AGAUCACAUGAGGAUCACCCAUGUCAGGAUAUCGACUGAUCAGCUUCGGCUGAUCAGUCGAGAAGGGACAAUUA [E1/1-A2] (Eterna round: R97, puzzle: Exclusion 1) , what is its reported apparent KD of MS2 coat protein?
280
